Cited source: PubChem BioAssay (NCI)

system: SN12C renal; assay: NCI tumour cell line growth inhibition, 48 h
Listed next: entries and their corresponding TGI.

{"molecule": "O=C(CN1CCOCC1)c1ccc2c(c1)oc(=O)n2CCN1CCOCC1", "TGI": "> 100 µM"}
{"molecule": "NC(Cc1ccc(N(CCCl)CCCl)cc1)C(=O)NC(CCC(=O)O)C(=O)O (stereo unspecified)", "TGI": "> 100 µM"}

Consider the additional molecule presented here.
QUERY: Requested read-out TGI, target or system SN12C renal, entry CN(C)CCNC(=O)c1cccc(N(C)C(=O)c2ccccc2)c1[N+](=O)[O-]
RESULT: > 10 µM

* * *

system: OVCAR-8 ovarian; assay: NCI tumour cell line growth inhibition, 48 h
readout label: TGI (µM)
Express the result in µM but write the number alone.

{"molecule": "CN(C)CCn1c(=O)c2ccc(NCCN3CCNCC3)c3c(=O)c4ccccc4n(c1=O)c23", "TGI / µM": 31.4}
{"molecule": "CC1(C)Cc2nc3c(cc2C(=O)C1C=N/C(C#N)=C(\\N)C#N)C(=O)C(C=N/C(C#N)=C(\\N)C#N)C(C)(C)C3 (stereo not given)", "TGI / µM": 8.71}

Consider the additional molecule presented here.
QUERY: Record request: TGI value, item Cc1c(N2CCN(C)CC2)nc2ccc(Cl)cc2c1-c1ccccc1
RESULT: 31.8
